test system: MDA-MB-231; test: Antiproliferative activity against human MDA-MB-231 cells assessed as reduction in cell viability after 72 hrs by MTT assay; type: functional, cell-based; conditions: MDA-MB-231, 72 h
Metric: IC50

Recorded results for 2 compounds are shown here.
[[record]]
record_smiles = "CCCCCCCC(=O)SCC/C=C/[C@@H]1CC(=O)NCc2nc(cs2)C2=N[C@@](C)(CS2)C(=O)N[C@@H](C(C)C)C(=O)O1"
val = "4.75 µM"

[[record]]
record_smiles = "CCCCCCCC(=O)SCC/C=C(\\F)[C@@H]1CC(=O)NCc2nc(cs2)C2=N[C@@](C)(CS2)C(=O)N[C@@H](C(C)C)C(=O)O1"
val = "3.85 µM"


Turning now to a further compound:
IN: Need IC50 of CCCCCCCC(=O)SCC/C(F)=C/[C@@H]1CC(=O)NCc2nc(cs2)C2=N[C@@](C)(CS2)C(=O)N[C@@H](C(C)C)C(=O)O1 , thanks.
OUT: 4.11 µM

----------
target: Protein deacetylase HDAC6 (Homo sapiens); test: Inhibition of recombinant human HDAC6 using Ac-peptide-AMC as substrate preincubated for 15 mins followed by substrate addition and measured after 60 mins by fluorescence based assay
Sequence (Q9UBN7 whole entry): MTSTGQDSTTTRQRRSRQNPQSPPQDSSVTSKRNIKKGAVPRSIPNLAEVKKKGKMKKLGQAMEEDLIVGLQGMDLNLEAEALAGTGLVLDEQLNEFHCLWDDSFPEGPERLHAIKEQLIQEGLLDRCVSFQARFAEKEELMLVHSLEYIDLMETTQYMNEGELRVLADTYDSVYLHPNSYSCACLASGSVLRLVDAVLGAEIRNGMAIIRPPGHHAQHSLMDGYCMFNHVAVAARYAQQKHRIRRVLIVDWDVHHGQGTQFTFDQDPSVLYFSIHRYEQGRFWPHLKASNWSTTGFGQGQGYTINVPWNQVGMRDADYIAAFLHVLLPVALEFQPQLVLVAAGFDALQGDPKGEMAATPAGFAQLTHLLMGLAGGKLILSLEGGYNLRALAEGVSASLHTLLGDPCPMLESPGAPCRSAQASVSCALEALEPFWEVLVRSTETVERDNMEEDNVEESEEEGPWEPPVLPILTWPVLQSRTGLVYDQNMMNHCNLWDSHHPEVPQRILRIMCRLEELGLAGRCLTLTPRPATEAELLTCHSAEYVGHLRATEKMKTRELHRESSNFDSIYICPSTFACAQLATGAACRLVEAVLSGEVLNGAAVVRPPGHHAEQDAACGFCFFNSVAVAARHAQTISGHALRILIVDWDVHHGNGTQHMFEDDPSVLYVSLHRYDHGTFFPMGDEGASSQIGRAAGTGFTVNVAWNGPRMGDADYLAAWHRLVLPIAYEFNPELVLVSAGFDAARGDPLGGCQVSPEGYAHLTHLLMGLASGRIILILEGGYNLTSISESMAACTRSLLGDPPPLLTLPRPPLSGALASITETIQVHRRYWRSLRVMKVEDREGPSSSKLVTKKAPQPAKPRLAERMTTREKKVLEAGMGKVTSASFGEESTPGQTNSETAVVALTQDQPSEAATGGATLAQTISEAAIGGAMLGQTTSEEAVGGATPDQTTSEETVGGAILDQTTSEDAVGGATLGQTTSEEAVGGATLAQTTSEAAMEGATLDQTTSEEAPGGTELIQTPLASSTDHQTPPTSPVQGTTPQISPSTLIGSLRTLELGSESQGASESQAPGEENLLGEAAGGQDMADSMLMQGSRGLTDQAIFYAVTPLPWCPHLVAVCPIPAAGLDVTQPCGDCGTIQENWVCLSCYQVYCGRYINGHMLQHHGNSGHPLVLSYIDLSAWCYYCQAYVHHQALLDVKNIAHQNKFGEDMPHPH
Metric: IC50 (nM)
Number only, in nM; omit the unit.

Recorded results for 3 molecules are shown here.
[[record]]
record_smiles = "CC(C)[C@@H]1NC(=O)[C@]2(C)CSC(=N2)c2csc(n2)CNC(=O)C[C@@H](/C=C(\\F)CCS)OC1=O"
val = 19.7

[[record]]
record_smiles = "CC(C)[C@@H]1NC(=O)[C@]2(C)CSC(=N2)c2csc(n2)CNC(=O)C[C@@H](/C(F)=C/CCS)NC1=O"
val = 333

[[record]]
record_smiles = "CC(C)[C@@H]1NC(=O)[C@]2(C)CSC(=N2)c2csc(n2)CNC(=O)C(F)(F)[C@@H](/C=C/CCS)NC1=O"
val = 1410


IN: Need IC50 of CC(C)[C@@H]1NC(=O)[C@]2(C)CSC(=N2)c2csc(n2)CNC(=O)C[C@@H](/C=C/C(F)(F)CS)OC1=O , thanks.
OUT: 898

IN: Need IC50 of CC(C)[C@@H]1NC(=O)[C@]2(C)CSC(=N2)c2csc(n2)CNC(=O)C[C@H](/C(F)=C/CCS)OC1=O , thanks.
OUT: 1830
